Values were extracted from patent US12552758B2.

# pIC50 values compiled below
- Target System: recombinant N-terminal PMS2 (residues 1-365) (Homo sapiens (Human))
- Sequence (P54278 1-365): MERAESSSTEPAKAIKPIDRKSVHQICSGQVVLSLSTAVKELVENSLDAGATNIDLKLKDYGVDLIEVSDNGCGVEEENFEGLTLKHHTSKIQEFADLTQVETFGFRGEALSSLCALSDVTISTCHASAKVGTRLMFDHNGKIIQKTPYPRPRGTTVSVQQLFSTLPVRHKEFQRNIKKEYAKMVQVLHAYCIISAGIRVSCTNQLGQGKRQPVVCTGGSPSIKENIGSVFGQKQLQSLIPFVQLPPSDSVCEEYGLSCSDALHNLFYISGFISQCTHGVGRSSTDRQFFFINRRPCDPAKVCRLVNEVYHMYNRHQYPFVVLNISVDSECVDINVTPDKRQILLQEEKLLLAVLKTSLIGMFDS
- Assay Explanation: Fluorescence polarisation assay for PMS2
- Condition Info: FP probe displacement; 10 nM N-terminal PMS2, 5 nM probe compound, read after 1 hour
pIC50: −log10 of the molar value.

CC(=O)Nc1cccc2c1CN(C(=O)c1c(O)cc(O)c(C)c1OCc1ccccc1)C2 : > 6.00
O=C(c1c(O)cc(O)cc1OCc1ccccc1)N1CCCC1 : < 5.00
O=C(c1c(O)cc(O)cc1OCc1ccccc1)N1Cc2cccnc2C1 : 5.00 to 6.00
Cc1c(O)cc(O)c(C(=O)N2Cc3cccc(N)c3C2)c1OCc1ccccc1 : > 6.00
Cc1c(O)cc(O)c(C(=O)N2CCc3cncnc3C2)c1OCc1ccccc1 : 5.00 to 6.00
O=C(c1c(O)cc(O)cc1OCc1ccccn1)N1Cc2ccccc2C1 : 5.00 to 6.00
CC(Oc1cc(O)cc(O)c1C(=O)N1CCCC1)c1ccccc1 (single isomer, unassigned) [Example 13] : < 5.00
Cc1c(O)cc(O)c(C(=O)N2Cc3cccc(NC4CCOC4)c3C2)c1OCc1ccccc1 (stereo not drawn) : > 6.00
Cc1c(O)cc(O)c(C(=O)N2Cc3ccc(CN4CCOCC4)cc3C2)c1OCc1ccccc1 : > 6.00
COc1ccc2c(c1)CCN(C(=O)c1c(O)cc(O)c(C)c1OCc1ccccc1)C2 : > 6.00

*Q* Check the records and state pIC50 for `Cc1c(O)cc(O)c(C(=O)N2CCc3ccccc3C2)c1OCc1ccc(F)cc1`
*A* > 6.00

*Q* Identify measured pIC50 associated with `Cc1c(O)cc(O)c(C(=O)N2Cc3cccc(CN4CCOCC4)c3C2)c1OCc1ccccc1`
*A* 5.00 to 6.00
